Source listed as the supplement of paper PMC9112550.

Test system: Escherichia coli TOP10
Assay: shrunken log2 fold change of peptide-encoding DNA abundance (4.5 h post-induction vs induction); higher = less antimicrobial activity (less host growth inhibition)
Conditions: time post-induction: 4.5 h; library: site-saturation at positions 5, 18, 19, 20
shrunken log2 fold change class ranges: lo: < -0.2; mid: ≥ -0.2 and < 0.04; hi: ≥ 0.04

Here's what some known entries look like.
{"residue-string": "RRIRMRPPRLPRPRPRPEWWPRP", "assay-system": "Escherichia coli TOP10", "label-class": "mid"}
{"residue-string": "RRIRNRPPRLPRPRPRPVKLPRP", "assay-system": "Escherichia coli TOP10", "label-class": "mid"}
{"residue-string": "RRIRFRPPRLPRPRPRPGIVPRP", "assay-system": "Escherichia coli TOP10", "label-class": "mid"}
{"residue-string": "RRIRHRPPRLPRPRPRPPNRPRP", "assay-system": "Escherichia coli TOP10", "label-class": "mid"}
{"residue-string": "RRIRSRPPRLPRPRPRPPTAPRP", "assay-system": "Escherichia coli TOP10", "label-class": "hi"}

Qu. Band for `RRIRGRPPRLPRPRPRPTRNPRP` ?
Ans. hi

Qu. Band for `RRIRWRPPRLPRPRPRPHVDPRP` ?
Ans. mid

Qu. Band for `RRIRKRPPRLPRPRPRPLPGPRP` ?
Ans. hi

Qu. Band for `RRIRWRPPRLPRPRPRPSKLPRP` ?
Ans. lo

* * *

Tested on: Escherichia coli TOP10
Experiment: shrunken log2 fold change of peptide-encoding DNA abundance (4.5 h post-induction vs induction); higher = less antimicrobial activity (less host growth inhibition)
Conditions: time post-induction: 4.5 h; library: site-saturation at positions 5, 18, 19, 20
Label T when shrunken log2 fold change is at or above -0.03; otherwise label F.

Here's what some known entries look like.
{"residue-string": "RRIRRRPPRLPRPRPRPIARPRP", "assay-system": "Escherichia coli TOP10", "label-class": "T"}
{"residue-string": "RRIRARPPRLPRPRPRPMCCPRP", "assay-system": "Escherichia coli TOP10", "label-class": "T"}
{"residue-string": "RRIRVRPPRLPRPRPRPAALPRP", "assay-system": "Escherichia coli TOP10", "label-class": "T"}
{"residue-string": "RRIRGRPPRLPRPRPRPEILPRP", "assay-system": "Escherichia coli TOP10", "label-class": "T"}

Let us examine a further case.
Qu. Decide: is the reported value of shrunken log2 fold change for `RRIRKRPPRLPRPRPRPIIKPRP` equal to or greater than -0.03?
Ans. T

* * *

shrunken log2 fold change values for the sequences below.
Tested on: Escherichia coli TOP10
Test: shrunken log2 fold change of peptide-encoding DNA abundance (4.5 h post-induction vs induction); higher = less antimicrobial activity (less host growth inhibition)
Conditions: time post-induction: 4.5 h; library: site-saturation at positions 5, 18, 19, 20
No unit in the answer, only the number.

Worked examples, 5 sequences total:
{"residue-string": "RRIRWRPPRLPRPRPRPCPTPRP", "measured-metric": "shrunken log2 fold change", "observed-result": 0.0714}
{"residue-string": "RRIRIRPPRLPRPRPRPGSKPRP", "measured-metric": "shrunken log2 fold change", "observed-result": -0.0906}
{"residue-string": "RRIRFRPPRLPRPRPRPCAQPRP", "measured-metric": "shrunken log2 fold change", "observed-result": -0.077}
{"residue-string": "RRIRTRPPRLPRPRPRPDHAPRP", "measured-metric": "shrunken log2 fold change", "observed-result": 0.283}
{"residue-string": "RRIRQRPPRLPRPRPRPDFPPRP", "measured-metric": "shrunken log2 fold change", "observed-result": 0.065}

Qu. Form field: reported shrunken log2 fold change of `RRIRCRPPRLPRPRPRPVTKPRP`
Ans. 0.217

Qu. Form field: reported shrunken log2 fold change of `RRIRKRPPRLPRPRPRPFEEPRP`
Ans. 0.148

Qu. Form field: reported shrunken log2 fold change of `RRIRTRPPRLPRPRPRPEGDPRP`
Ans. 0.0354

Qu. Form field: reported shrunken log2 fold change of `RRIRLRPPRLPRPRPRPEPEPRP`
Ans. 0.551

Qu. Form field: reported shrunken log2 fold change of `RRIRARPPRLPRPRPRPKSWPRP`
Ans. 0.89

Qu. Form field: reported shrunken log2 fold change of `RRIRIRPPRLPRPRPRPDVIPRP`
Ans. -0.00836

Qu. Form field: reported shrunken log2 fold change of `RRIRRRPPRLPRPRPRPTIQPRP`
Ans. 0.144

Qu. Form field: reported shrunken log2 fold change of `RRIRWRPPRLPRPRPRPHPLPRP`
Ans. -0.0381

Qu. Form field: reported shrunken log2 fold change of `RRIRLRPPRLPRPRPRPPRIPRP`
Ans. 0.0531

Qu. Form field: reported shrunken log2 fold change of `RRIRPRPPRLPRPRPRPWEQPRP`
Ans. 0.201

* * *

Tested on: Escherichia coli TOP10
Experiment: shrunken log2 fold change of peptide-encoding DNA abundance (4.5 h post-induction vs induction); higher = less antimicrobial activity (less host growth inhibition)
Conditions: time post-induction: 4.5 h; library: site-saturation at positions 5, 18, 19, 20
measured-metric: shrunken log2 fold change

{"residue-string": "RRIRERPPRLPRPRPRPHRAPRP", "assay-system": "Escherichia coli TOP10", "shrunken log2 fold change": -0.0349}
{"residue-string": "RRIRWRPPRLPRPRPRPGKSPRP", "assay-system": "Escherichia coli TOP10", "shrunken log2 fold change": 0.0772}
{"residue-string": "RRIRWRPPRLPRPRPRPDNAPRP", "assay-system": "Escherichia coli TOP10", "shrunken log2 fold change": -0.000159}
{"residue-string": "RRIRQRPPRLPRPRPRPEEAPRP", "assay-system": "Escherichia coli TOP10", "shrunken log2 fold change": 0.188}

Qu. Form field: reported shrunken log2 fold change of `RRIRQRPPRLPRPRPRPASMPRP`
Ans. -0.39

Qu. Form field: reported shrunken log2 fold change of `RRIRVRPPRLPRPRPRPPGQPRP`
Ans. 0.266

Qu. Form field: reported shrunken log2 fold change of `RRIRERPPRLPRPRPRPKHIPRP`
Ans. -0.766

Qu. Form field: reported shrunken log2 fold change of `RRIRVRPPRLPRPRPRPCWWPRP`
Ans. 0.297

Qu. Form field: reported shrunken log2 fold change of `RRIRQRPPRLPRPRPRPHHPPRP`
Ans. 0.00343

Qu. Form field: reported shrunken log2 fold change of `RRIRLRPPRLPRPRPRPRSIPRP`
Ans. -0.247

Qu. Form field: reported shrunken log2 fold change of `RRIRWRPPRLPRPRPRPHWNPRP`
Ans. -0.676

Qu. Form field: reported shrunken log2 fold change of `RRIRHRPPRLPRPRPRPEPYPRP`
Ans. 0.0514

* * *

Tested on: Escherichia coli TOP10
Test: shrunken log2 fold change of peptide-encoding DNA abundance (4.5 h post-induction vs induction); higher = less antimicrobial activity (less host growth inhibition)
Settings: time post-induction: 4.5 h; library: site-saturation at positions 5, 18, 19, 20
Label fulfilled when shrunken log2 fold change is at or above -0.3; otherwise label not fulfilled.

Here's what some known entries look like.
{"residue-string": "RRIRDRPPRLPRPRPRPNNQPRP", "label-class": "not fulfilled"}
{"residue-string": "RRIRFRPPRLPRPRPRPCLMPRP", "label-class": "not fulfilled"}
{"residue-string": "RRIRARPPRLPRPRPRPTTIPRP", "label-class": "fulfilled"}

Let us examine a further case.
Qu. Decide: is the reported value of shrunken log2 fold change for `RRIRYRPPRLPRPRPRPHMAPRP` equal to or greater than -0.3?
Ans. fulfilled

* * *

Tested on: Escherichia coli TOP10;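 note: peptides expressed intracellularly from a pBAD plasmid library in pooled LB shake-flask culture, induced with 0.3% L-arabinose, DNA abundance read by NGS, three biological replicates, DESeq2 with apeglm shrinkage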
Assay: shrunken log2 fold change of peptide-encoding DNA abundance (4.5 h post-induction vs induction); higher = less antimicrobial activity (less host growth inhibition)
Conditions: time post-induction: 4.5 h; library: site-saturation at positions 5, 18, 19, 20
shrunken log2 fold change values for the sequences below.
No unit in the answer, only the number.

Worked examples, 5 sequences total:
{"residue-string": "RRIRYRPPRLPRPRPRPLQTPRP", "observed-result": 0.0147}
{"residue-string": "RRIRGRPPRLPRPRPRPDQNPRP", "observed-result": 0.00612}
{"residue-string": "RRIRWRPPRLPRPRPRPFVMPRP", "observed-result": -1.01}
{"residue-string": "RRIRTRPPRLPRPRPRPGYRPRP", "observed-result": -0.0981}
{"residue-string": "RRIRMRPPRLPRPRPRPMEAPRP", "observed-result": 0.0555}

Now look at this one.
Qu. Form field: reported shrunken log2 fold change of `RRIRLRPPRLPRPRPRPDYFPRP`
Ans. -0.146
